- System: Alternaria solani
- measurementProtocol: Test F: tomato early blight, preventive spray on tomato seedlings
- Format: in vivo
- conditionLabel: 120 h, 50 ppm, 100 = 100% disease control, 0 = no control, read-out: Test F disease control rating
Give measured pest or weed control at 50 ppm for each item. Keep answers brief.
Numbers only, in %.

Answered examples (5):
Cc1cc(F)c(Nc2c(-c3ccc(C#N)cc3Cl)c(C)nn2C)c([N+](=O)[O-])c1 [Compound 127]
100
COc1cc(F)c(Nc2c(-c3c(F)cccc3Cl)c(C)nn2C)c([N+](=O)[O-])c1 [Compound 23]
99
CCc1nn(C)c(Nc2c(F)cccc2[N+](=O)[O-])c1-c1ccc(F)cc1Cl [Compound 72]
99
Cc1nn(C)c(Nc2c(Cl)cc(F)cc2[N+](=O)[O-])c1-c1ccc(C#N)cc1Cl [Compound 18]
99
Cc1nn(C)c(Nc2c(F)cccc2[N+](=O)[O-])c1-c1ccc(F)cc1F [Compound 118]
99

// input: 2 molecules below; output: pest or weed control at 50 ppm for each
1. Cc1nn(C)c(Nc2c(F)cccc2[N+](=O)[O-])c1-c1c(F)cc(F)cc1Br [Compound 1]
2. Cc1nn(C)c(Nc2c(F)cccc2[N+](=O)[O-])c1-c1ccc(F)cc1Br [Compound 60]

1. 99
2. 99

---

- Tested on: Septoria tritici
- measurementProtocol: Test A: wheat leaf blotch, preventive spray on wheat seedlings
- Assay type: in vivo
- conditionLabel: 50 ppm, 100 = 100% disease control, 0 = no control
For each entry below, report its Test A disease control rating value.
Answers are plain numbers, in %.

Below, 3 molecules whose answers are already recorded.
COc1cc(F)c(-c2c(C)nn(C)c2Nc2c(F)cc(Cl)cc2[N+](=O)[O-])c(F)c1
100
Cc1ccc(Nc2c(-c3ccc(F)cc3Cl)c(C)nn2C)c([N+](=O)[O-])c1
100
Cc1nn(C)c(Nc2c(F)cccc2[N+](=O)[O-])c1-c1c(Cl)cccc1Cl
100

// for each molecule below, give its Test A disease control rating
1. Cc1nn(C)c(Nc2c(Br)cccc2[N+](=O)[O-])c1-c1ccc(C#N)cc1Cl
2. Cc1cc(Cl)cc([N+](=O)[O-])c1Nc1c(-c2ccc(F)cc2Cl)c(C)nn1C
3. Cc1cc(Cl)c(Nc2c(-c3ccc(F)cc3F)c(C)nn2C)c([N+](=O)[O-])c1
4. Cc1cc(Cl)c(Nc2c(-c3ccc(Cl)cc3Cl)c(C)nn2C)c([N+](=O)[O-])c1
5. COc1cc(F)c(-c2c(C)nn(C)c2Nc2c(Cl)cc(Cl)cc2[N+](=O)[O-])c(F)c1
6. Cc1nn(C)c(Nc2c(F)cc(F)cc2[N+](=O)[O-])c1-c1c(F)cccc1Cl
7. Cc1nn(C)c(Nc2c(F)cccc2[N+](=O)[O-])c1-c1c(F)cc(Cl)cc1F
8. Cc1nn(C)c(Nc2cc(F)c(F)cc2[N+](=O)[O-])c1-c1ccc(F)cc1Cl

1: 100; 2: 100; 3: 100; 4: 98; 5: 100; 6: 100; 7: 100; 8: 93

---

- System: Septoria tritici
- measurementProtocol: Test A: wheat leaf blotch, preventive spray on wheat seedlings
- Assay type: in vivo
- conditionLabel: 50 ppm, 100 = 100% disease control, 0 = no control
- Excerpt: General protocol for preparing test suspensions for Tests A-F: the test compounds were first dissolved in acetone in an amount equal to 3% of the final volume and then suspended at the desired concentration (in ppm) in acetone and purified water (50/50 mix by volume) containing 250 ppm of the surfactant PEG400 (polyhydric alcohol esters). The resulting test suspensions were then used in Tests A-F. The test solution was sprayed to the point of run-off on wheat seedlings. […]
Exercise: for every item that follows, state its recorded Test A disease control rating.
One number for each entry, in %.

# example entries with known answers
Cc1nn(C)c(Nc2c(Cl)cccc2[N+](=O)[O-])c1-c1c(F)cccc1Cl
100
Cc1nn(C)c(Nc2ccc(OC(C)C)cc2[N+](=O)[O-])c1-c1ccc(F)cc1Cl
60
COc1cc(Cl)c(Nc2c(-c3ccc(F)cc3Cl)c(C)nn2C)c([N+](=O)[O-])c1
100
Cc1cc(Cl)c(Nc2c(-c3c(F)cccc3Cl)c(C)nn2C)c([N+](=O)[O-])c1
100
Cc1nn(C)c(Nc2c(Cl)cccc2[N+](=O)[O-])c1-c1ccc(F)cc1Cl
100
Cc1nn(C)c(Nc2ccccc2[N+](=O)[O-])c1-c1c(F)cc(F)cc1Br
99
Cc1nn(C)c(Nc2ccccc2[N+](=O)[O-])c1-c1c(F)cc(Cl)cc1F
100

Here's the next entry for you.
Please report the recorded Test A disease control rating for COc1cc(F)c(Nc2c(-c3ccc(C#N)cc3Cl)c(C)nn2C)c([N+](=O)[O-])c1 .
99

Reference for the values: patent US20230148599A1
